Entries and their measured pKa follow.
assay.setup: acidic group
assay.metric: pKa

[[record]]
molecule = "Cc1cccc(O)c1"
assay_metric = "pKa"
value_measured = 10

[[record]]
molecule = "COc1ccc(O)c(C[NH2+]C(CO)C(=O)O)c1 (stereo not drawn)"
assay_metric = "pKa"
value_measured = 2.1

[[record]]
molecule = "O=[N+]([O-])c1ccc([O-])c(O)c1"
assay_metric = "pKa"
value_measured = 10.9

[[record]]
molecule = "O/N=C1\\CCCC\\C1=N/O"
assay_metric = "pKa"
value_measured = 10.5

[[record]]
molecule = "Cc1n[nH]c(O)c1-c1ccccc1"
assay_metric = "pKa"
value_measured = 11.4

[[record]]
molecule = "Oc1cccc2ccnnc12"
assay_metric = "pKa"
value_measured = 8.25

[[record]]
molecule = "CCCOc1ccc(C(=O)O)cc1"
assay_metric = "pKa"
value_measured = 4.63

[[record]]
molecule = "CC1(C)NC(=O)NC1=O"
assay_metric = "pKa"
value_measured = 9.19


* * *

assay.setup: basic group
Each entry belongs to exactly one class, chosen by where its pKa falls: bucket 1 = under 4, bucket 2 = from 4 up to 9, bucket 3 = 9 and over

[[record]]
compound = "CN(C)c1ccc(/C=C/c2cc[n+]([O-])cc2)cc1"
assigned_category = "bucket 2"

[[record]]
compound = "CCOCCn1c(N2CCCN(CCCCn3cc(C(=O)[O-])cn3)CC2)nc2ccccc21"
assigned_category = "bucket 2"

[[record]]
compound = "Cn1ncc2c(N)nc(Cl)nc21"
assigned_category = "bucket 1"

[[record]]
compound = "COc1ccc(C(N)=O)cc1"
assigned_category = "bucket 1"

[[record]]
compound = "[O-]c1cc[n+]([C@H]2O[C@@H](CO)[C@H](O)[C@H]2O)c([O-])n1"
assigned_category = "bucket 3"

[[record]]
compound = "NCCCCCCBr"
assigned_category = "bucket 3"

[[record]]
compound = "O=C([O-])CN(CC(=O)[O-])Cc1cc([N+](=O)[O-])ccc1[O-]"
assigned_category = "bucket 3"

[[record]]
compound = "CC(C)C(=O)C(C)(C)CN(C)C"
assigned_category = "bucket 3"

[[record]]
compound = "O=Cc1ccnc2ccccc12"
assigned_category = "bucket 2"

[[record]]
compound = "Brc1ccc(C2NCCS2)cc1 (centres undefined)"
assigned_category = "bucket 2"

[[record]]
compound = "Cc1cc(C)nc(N)n1"
assigned_category = "bucket 2"


* * *

assay.setup: acidic group
Below, each of the compounds is paired with its reported pKa value.
assay.metric: pKa

[[record]]
compound = "Cc1ccc(C(=O)O)s1"
assay_metric = "pKa"
value_measured = 3.76

[[record]]
compound = "O=C(O)c1ccc[nH+]c1"
assay_metric = "pKa"
value_measured = 2.03

[[record]]
compound = "C[NH+](C)CCCCCCNC(=O)/C=N/O"
assay_metric = "pKa"
value_measured = 8.93

[[record]]
compound = "C[n+]1c2ccccc2nc2c(O)cccc21"
assay_metric = "pKa"
value_measured = 4.85

[[record]]
compound = "O=C(O)c1cc[nH+]cc1"
assay_metric = "pKa"
value_measured = 1.71

[[record]]
compound = "Nc1nc2cccc[n+]2o1"
assay_metric = "pKa"
value_measured = 7.18

[[record]]
compound = "O=P(C1CCCCC1)(C1CCCCC1)C1CCCCC1"
assay_metric = "pKa"
value_measured = 13.7

[[record]]
compound = "CCSC(C)C(=O)O (stereo not given)"
assay_metric = "pKa"
value_measured = 3.8

[[record]]
compound = "O=c1[nH]c2ccccc2[nH]c1=O"
assay_metric = "pKa"
value_measured = 9.67

[[record]]
compound = "C[NH2+]C(C)(C)C(=O)O"
assay_metric = "pKa"
value_measured = 2.2

[[record]]
compound = "Cn1cnc2nc(N)[nH+]c(O)c21"
assay_metric = "pKa"
value_measured = 3.57

[[record]]
compound = "COc1ccc(/C(=C\\C(=O)c2ccc(S(=O)(=O)[O-])cc2)CC(=O)c2ccc(S(=O)(=O)[O-])cc2)cc1S(=O)(=O)[O-]"
assay_metric = "pKa"
value_measured = 10.7

[[record]]
compound = "O/N=C/C=C/c1ccccc1"
assay_metric = "pKa"
value_measured = 10.6

[[record]]
compound = "Oc1cc[nH+]c2ccccc12"
assay_metric = "pKa"
value_measured = 2.27

[[record]]
compound = "CC(C)(C)O"
assay_metric = "pKa"
value_measured = 17

[[record]]
compound = "NC(=O)c1ccncc1"
assay_metric = "pKa"
value_measured = 10.5

[[record]]
compound = "O=c1[nH]c(=S)c2[nH]cnc2[nH]1"
assay_metric = "pKa"
value_measured = 6.2

[[record]]
compound = "NC(=O)C(N)Cc1ccccc1 (stereo not given)"
assay_metric = "pKa"
value_measured = 7.33

[[record]]
compound = "O=C(O)c1c(Cl)cccc1[N+](=O)[O-]"
assay_metric = "pKa"
value_measured = 1.41

[[record]]
compound = "O=CC(=O)O"
assay_metric = "pKa"
value_measured = 1.26

[[record]]
compound = "N#CC(C#N)=NNc1ccccc1Cl"
assay_metric = "pKa"
value_measured = 5.84

[[record]]
compound = "Nc1nccc2c1[nH+]cn2CCOCP(=O)(O)O"
assay_metric = "pKa"
value_measured = 1.23

[[record]]
compound = "CCN(CC)C(=S)NC(=O)c1cccc(F)c1"
assay_metric = "pKa"
value_measured = 8.21

[[record]]
compound = "O=C(O)CSCCc1ccccc1"
assay_metric = "pKa"
value_measured = 3.8

[[record]]
compound = "CCCC(C(CC)CO)C(CC)C(=O)O (stereo not given)"
assay_metric = "pKa"
value_measured = 4.78

[[record]]
compound = "Oc1cc2ccccc2cc1C1=[NH+]CCN1"
assay_metric = "pKa"
value_measured = 7.01

[[record]]
compound = "[O-][n+]1cccc(O)c1"
assay_metric = "pKa"
value_measured = 6.4

[[record]]
compound = "Cc1ccc(Cl)c(C(=O)O)c1"
assay_metric = "pKa"
value_measured = 3.12

[[record]]
compound = "O=C(O)[C@@H]1O[C@H](Oc2ccc(I)cc2)[C@@H](O)[C@H](O)[C@H]1O"
assay_metric = "pKa"
value_measured = 3.28

[[record]]
compound = "Cc1cc(Cc2cc(O)ccc2C)c([O-])c([N+](=O)[O-])c1"
assay_metric = "pKa"
value_measured = 10.4


* * *

The entries below are paired with their reported pKa.
assay.setup: acidic group
assay.metric: pKa

[[record]]
compound = "CCN(CC)CC(=N\\O)/C(C)=N/O"
value_measured = 10.7

[[record]]
compound = "CCOC(=O)c1cc(C)[n+](O)c(C)c1"
value_measured = -0.13

[[record]]
compound = "CC(C)(O)C(C(=O)O)c1ccc(-c2ccccc2)cc1 (stereo unspecified)"
value_measured = 3.76

[[record]]
compound = "NC(=S)C(N)=S"
value_measured = 10.9

[[record]]
compound = "CC(=O)C1C(=O)OC(=O)C=C1C (stereo unspecified)"
value_measured = 1.34

[[record]]
compound = "Oc1cccc2scnc12"
value_measured = 8.77

[[record]]
compound = "Cc1ccc2ccc(O)cc2c1"
value_measured = 9.52

[[record]]
compound = "NC(=S)Nc1cccc(Cl)c1"
value_measured = 12

[[record]]
compound = "COc1cccc(OC)c1-c1nc2ncccc2[nH]1"
value_measured = 11.3

[[record]]
compound = "C[n+]1ccccc1C(C)(O)O"
value_measured = 10.6

[[record]]
compound = "C[C@]12CC[C@@H]3c4ccc(O)cc4CC[C@H]3[C@@H]1C[C@@H](O)[C@@H]2O"
value_measured = 10.8

[[record]]
compound = "COc1ccc(NC(=S)c2ccccc2)cc1"
value_measured = 11.4

[[record]]
compound = "C=C(C)[C@@H]1C[NH2+][C@H](C(=O)[O-])[C@@H]1CC(=O)O"
value_measured = 4.58

[[record]]
compound = "Cc1ccnc2c(O)cccc12"
value_measured = 8.44

[[record]]
compound = "CC(=O)C(=NO)C(C)=O"
value_measured = 7.44

[[record]]
compound = "O=C1COC=C([O-])C1=O"
value_measured = 10.5

[[record]]
compound = "NC(=O)NOCC(=O)O"
value_measured = 2.6

[[record]]
compound = "CN1C(=O)N/C(=C\\c2ccccc2)C1=O"
value_measured = 9.6

[[record]]
compound = "Cc1ccc(C(=O)O)o1"
value_measured = 3.42

[[record]]
compound = "COC(=O)c1ccc(NC=S)cc1"
value_measured = 10.9

[[record]]
compound = "COC(=O)CC(=N/O)/C(C)=N/O"
value_measured = 9.77

[[record]]
compound = "Cc1n[nH]c2c1c(=O)n(C)c(=O)n2C"
value_measured = 9.83

[[record]]
compound = "CC(=O)c1cccc(C(=O)O)c1"
value_measured = 3.84

[[record]]
compound = "CNc1nnc(S(N)(=O)=O)s1"
value_measured = 7.8

[[record]]
compound = "CCCCCCC(=O)O"
value_measured = 4.86

[[record]]
compound = "C[N+]1(CCCC(=O)O)CCCCC1"
value_measured = 4.11

[[record]]
compound = "C[N+](C)(C)c1ccccc1O"
value_measured = 7.46

[[record]]
compound = "[NH3+]CCCCC#CC#CCCC(=O)O"
value_measured = 4.15

[[record]]
compound = "Oc1cc[nH+]cc1"
value_measured = 4.04

[[record]]
compound = "Cc1cc(C)nc(NS(=O)(=O)c2ccc(N)cc2)n1"
value_measured = 7.44

[[record]]
compound = "CCOC(=O)c1ccccc1-n1nc(O)cc1-c1ccccc1"
value_measured = 12.4

